Measured values drawn from the supplement of paper PMC7411054 for this set.

# Test system: HepG2-CANX-COX4
# test-details: phenotypically active (imaging signature differs from DMSO and reproducible) at any of 0.3-9 uM (binary (1 = active, 0 = inactive)); higher = active
# cond: treatment time: 24 h
Your reply should match one of these outcome classes. True for active, False for inactive

compound=CCN1CCN(c2cc(-c3ccc(F)cc3)c3c(n2)CCCCCC3)CC1 assigned_category=True
compound=CCN(CC)CC(=O)Nc1c(C)cccc1C assigned_category=False
compound=CC1(C)[C@@H](O)CC[C@]2(C)[C@H]3C(=O)C=C4[C@@H]5C[C@@](C)(C(=O)O)CC[C@]5(C)CC[C@@]4(C)[C@]3(C)CC[C@@H]12 assigned_category=False
compound="CC(C)NCC(O)COc1ccc(CC(N)=O)cc1 (stereo not given)" assigned_category=False
compound=Cc1n[nH]c2ccc(-c3cncc(OC[C@@H](N)Cc4ccccc4)c3)cc12 assigned_category=True
compound=CC(C)(C)c1nc(-c2cccc(NS(=O)(=O)c3c(F)cccc3F)c2F)c(-c2ccnc(N)n2)s1 assigned_category=True
compound=Cc1ccc([N+](=O)[O-])cc1S(=O)(=O)N(C)C assigned_category=False
compound=CC(=O)Nc1ccc(C(=O)Nc2ccccc2N)cc1 assigned_category=True
compound="Cc1ccccc1C(OCCN(C)C)c1ccccc1 (stereo not given)" assigned_category=False

Now look at this one.
query: Per the records of this test, what outcome belongs to Cc1ccc(N(CC2=NCCN2)c2cccc(O)c2)cc1 ?
result: False

----------
Hi there, I'd appreciate the recorded phenotypically active for every entry that follows.
# System: WPMY1-CANX-COX4
# test-details: phenotypically active (imaging signature differs from DMSO and reproducible) at any of 0.3-9 uM (binary (1 = active, 0 = inactive)); higher = active
# cond: treatment time: 24 h
Counter-ions that a name gives are not always drawn.
Answers are plain numbers.

Answered cases to consult:
molecule=O=c1[nH]cnc2ccccc12 recorded_endpoint="phenotypically active" readout_value=0
molecule="CSc1ccc2c(c1)N(CCC1CCCCN1C)c1ccccc1S2 (stereo not given)" recorded_endpoint="phenotypically active" readout_value=1
molecule="C[C@@H](CO)CCC[C@@H](C)[C@H]1CC[C@H]2[C@@H]3CC=C4C[C@@H](O)CC[C@]4(C)[C@H]3CC[C@]12C [27-Hydroxycholesterol]" recorded_endpoint="phenotypically active" readout_value=0
molecule=CCCN(CCC)CCc1cccc2c1CC(=O)N2 recorded_endpoint="phenotypically active" readout_value=0
molecule=C#C[C@]1(O)CC[C@H]2[C@@H]3CCC4=Cc5oncc5C[C@]4(C)[C@H]3CC[C@@]21C recorded_endpoint="phenotypically active" readout_value=0
molecule="CCC1(c2ccccc2)NC(=O)N(C)C1=O (stereo not given)" recorded_endpoint="phenotypically active" readout_value=0
molecule=COc1ccc(CCc2nc3cc(-c4c(C)noc4C)ccc3n2C[C@H](C)N2CCOCC2)cc1Cl recorded_endpoint="phenotypically active" readout_value=0
molecule="COc1ccc(N(C)c2nc(C)nc3ccccc23)cc1 [MPC 6827 hydrochloride]" recorded_endpoint="phenotypically active" readout_value=1

Dear colleague, could you please provide phenotypically active for the molecules listed below?
1. N=C(N)NC(=N)NCCc1ccccc1
2. COc1ccc(-c2noc(CSc3nnc(C)n3-c3ccc(OC)cc3)n2)cc1
3. O=C(Nc1ccc(-c2ccnc(Nc3ccc(N4CCOCC4)cc3)n2)cc1)[C@@H]1CCCN1
4. CS(=O)(=O)c1ccc(-c2nnc(/C=C/c3nnc(-c4ccc(C#N)cc4)o3)n2-c2ccccc2Cl)nc1
5. O=P(O)(O)C(O)(Cn1ccnc1)P(=O)(O)O
6. CCN1/C(=C/C(C)=O)Sc2ccc(O)cc21
7. Fc1ccccc1Nc1nc2nonc2nc1Nc1ccccc1F
8. NC(=O)[C@@H](CCC(F)(F)F)N(Cc1ccc(-c2ncon2)cc1F)S(=O)(=O)c1ccc(Cl)cc1

result:
1. 0
2. 0
3. 1
4. 0
5. 0
6. 0
7. 1
8. 0

Hello, I would appreciate it if you could give phenotypically active for each entry below.
1. CN(C)CC(=O)Nc1ccc2[nH]c(=O)c3ccccc3c2c1 [PJ 34 hydrochloride]
2. Nc1ncn([C@@H]2O[C@H](CO)[C@@H](O)[C@H]2O)c(=O)n1
3. Cc1c(CN2CCN(C(=O)[C@H](C)O)CC2)sc2c(N3CCOCC3)nc(-c3cnc(N)nc3)nc12
4. Cc1cc2cc(NS(=O)(=O)c3ccc(C#N)cc3)ccc2n(C)c1=O

result:
1
1
1
0

----------
# Test system: HepG2-GM130-SQSTM1
# test-details: phenotypically active (imaging signature differs from DMSO and reproducible) at any of 0.3-9 uM (binary (1 = active, 0 = inactive)); higher = active
# cond: treatment time: 24 h
Please state which outcome applies, choosing from 1 for active, 0 for inactive

query: Could you check what this test reported for Brc1c(NC2=NCCN2)ccc2nccnc12 ?
result: 0

----------
# Tested on: HepG2-CANX-COX4
# test-details: lowest phenotypically active concentration; higher = less potent
# cond: treatment time: 24 h
Would you mind telling me the reported lowest phenotypically active concentration of each entry?
One number for each entry, in µM.

Please review the following examples before continuing.
compound="CCN(CC)CCCC(C)Nc1ccnc2cc(Cl)ccc12 (stereo not given)" readout_value=9
compound=C[C@@H]1CCN(C(=O)CC#N)C[C@@H]1N(C)c1ncnc2[nH]ccc12 readout_value=9

Kindly consider the entry below.
Note to self: lowest phenotypically active concentration recorded for CC[C@@H](N)CNc1ccnc(-c2cc(-c3cnn(C)c3)ccc2O)n1 was 1

----------
# Tested on: HepG2-GM130-SQSTM1
# test-details: phenotypically active (imaging signature differs from DMSO and reproducible) at any of 0.3-9 uM (binary (1 = active, 0 = inactive)); higher = active
# cond: treatment time: 24 h
Counter-ions that a name gives are not always drawn.
Tick one outcome: label 1 = active, label 0 = inactive

molecule=N=C(N)c1ccc(OCCCCCOc2ccc(C(=N)N)cc2)cc1 assigned_category="label 0"

query: Short answer needed: outcome of this test for C[C@]12CC[C@@H]3c4ccc(O)cc4CC[C@H]3[C@@H]1CC[C@@H]2O ?
result: label 0

query: Would you mind telling me which call this test gave CC[N+](CC)(CC)CCC(O)(c1ccccc1)C1CCCCC1 (stereo not given) ?
result: label 0

query: Tell me the recorded outcome of this test for COc1ccc2[nH]c(C(=O)c3ccccc3)cc2c1 .
result: label 1

query: Outcome? CCc1ccc(CCOc2ccc(CC3SC(=O)NC3=O)cc2)nc1 (stereo not given) [Pioglitazone hydrochloride]
result: label 0

query: Which outcome was entered for the molecule Cc1cc(C)nc(SCC(=O)Nc2ncc(Cc3cccc4ccccc34)s2)n1 in this test?
result: label 0

query: // outcome(item) with item = CCOC(=O)CCNc1cc(N2CCc3ccccc3CC2)nc(-c2ccccn2)n1
result: label 1

query: Hey, what did the test say about COc1cc2c(N3CCN(C(=O)Nc4ccc(OC(C)C)cc4)CC3)ncnc2cc1OCCCN1CCCCC1 ?
result: label 1

query: Query: recorded result category for Nc1c2c(nc3ccccc13)CCCC2 in this test
result: label 0

query: Give the logged outcome of this assay for the following molecule: C/C(=C/c1ccc(C(=O)O)cc1)c1ccc2c(c1)C(C)(C)CCC2(C)C
result: label 0

----------
# System: HepG2-CANX-COX4
# test-details: phenotypically active (imaging signature differs from DMSO and reproducible) at any of 0.3-9 uM (binary (1 = active, 0 = inactive)); higher = active
# cond: treatment time: 24 h
// one of active, inactive, no free text

molecule="CCCCCCCCCCCCC/C=C/[C@@H](O)[C@H](CO)N(C)C [N,N-Dimethylsphingosine]" assigned_category=active
molecule="COc1cc2c(cc1OC)CC(=O)N(CCCN(C)C[C@H]1Cc3cc(OC)c(OC)cc31)CC2 [ivabridine]" assigned_category=inactive
molecule="CCCCc1oc2ccccc2c1C(=O)c1cc(I)c(OCCN(CC)CC)c(I)c1 [amiodarone]" assigned_category=active

Field: next molecule
query: For Nc1ncnc2c1ncn2[C@H]1O[C@@H](C(=O)N2CCN(CC(=O)Nc3cccc4c3CNC4=O)CC2)[C@H](O)[C@@H]1O , which call appears in the assay record?
result: inactive

----------
# Tested on: A549-TP53BP1-CLTA
# test-details: lowest phenotypically active concentration; higher = less potent
# cond: treatment time: 24 h
Counter-ions that a name gives are not always drawn.
recorded-endpoint: lowest phenotypically active concentration (µM)
One number for each entry, in µM.

compound="CC(C)(N)c1cc(C(=O)N[C@@H]2CCc3ccc(OC4=C5CCC(=O)N=C5NC=C4)cc3C2)cc(C(F)(F)F)c1 [ML 786 dihydrochloride]" readout_value=3
compound="CCCCc1oc2ccccc2c1C(=O)c1cc(I)c(OCCN(CC)CC)c(I)c1 [amiodarone]" readout_value=9
compound="O=c1[nH]cc(F)c(=O)[nH]1 [5-Fluorouracil]" readout_value=9

Summary for this compound, COc1cc(C(=O)N2CCC(N3CCN(C)CC3)CC2)ccc1Nc1ncc2c(n1)N(C)c1ccccc1C(=O)N2C : lowest phenotypically active concentration is 9
